The origin of these recorded values is the supplement of paper PMC10567573.

B1: SEC22B (parent)
chain: FPKKLAFAYLEDLHSEFDEQHGKK

# Variants of: B1
# TEST_METHOD_NOTES: protein stability index of a GFP-peptide fusion (GPS, HEK-293T) (PSI 1-6); higher = more stable;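 further: lentivirally expressed fusions sorted by FACS into six bins by GFP to DsRed ratio, PSI derived from sequencing read proportions per bin multiplied by bin number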
# STATED_CONDITIONS: c terminus: a fixed tail appended
Recorded protein stability index by entry

| SEQUENCE_VARIANT | protein stability index |
| --- | --- |
| A6S | 2.69 |
| Q20D | 2.93 |
| K23P | 2.33 |
| Y9C | 2.18 |
| E11P | 1.8 |
| K4Q | 2.52 |
| Q20I | 2.03 |
| Y9I | 1.8 |
| K3C | 1.69 |
| H21R | 2.37 |
| E19I | 2.37 |
| E11S | 1.78 |
| G22Y | 1.98 |
| F7V | 2.67 |
| S15Q | 2.73 |
| F7C | 3.47 |
| H14I | 1.68 |
| L5R | 2.65 |
| H21N | 3.07 |
| L10Y | 2.84 |
| A6F | 2.4 |
| F17H | 2.66 |
